Test system: K-562 leukemia
Assay Text: NCI tumour cell line growth inhibition, 48 h
Measure Name: TGI (µM)
One number for each entry, in µM.

Look over these answered cases.
# Compound, Reported Result
measured = [
    ("CCN(CC)CCNc1ccc(C)c2sc3ccc(O)cc3c(=O)c12", 3.62),
    ("CCCCCCCCCC(=O)CC(=O)c1c(O)cccc1O", 86),
]

Provide the reported TGI of each entry below, same order.
1. C=C(Cl)C(Cl)(CBr)CCC(Cl)C(C)(C)Cl (stereo not given)
2. O=C(NNS(=O)(=O)c1cc(C(F)(F)F)cc(C(F)(F)F)c1)c1cnn(-c2ccc(Cl)cc2)c1C(F)(F)F

Solution:
29.3
65.7

====

Test system: CCRF-CEM leukemia
Assay Text: NCI tumour cell line growth inhibition, 48 h
I'd appreciate it if you could supply TGI values for the items below.

Look over these answered cases.
# Compound, Reported Result
records = [
    ("Cc1cc(C)c(C(=O)OC(c2ccccc2)C(c2ccccc2)N2CCOCC2)c(C)c1 (stereo unspecified)", "> 100 µM"),
    ("C[Se]C(=O)CC1=C2C=C(F)C=CC2/C(=C\\c2ccc(S(C)=O)cc2)C1C (stereo unspecified)", "> 20.6 µM"),
    ("CCS/C(Nc1ccccc1)=C(\\C#N)C(=O)Nc1ccc(OC)cc1", "> 100 µM"),
    ("COC(=O)C1=C(C)NC(C)=C([N+](=O)[O-])C1c1cccc(NO)c1 (stereo unspecified)", "> 22.9 µM"),
    ("Cc1cc(=Nc2ccc3c(c2)c(N)cc(C)[n+]3C)nc(N)n1C", "> 100 µM"),
]

Provide the reported TGI of each entry below, same order.
1. CSCCCCCCCCCCOc1ccc(C=C2C(=C(C#N)C#N)c3ccccc3C2=C(C#N)C#N)cc1
2. CC1OC(=O)c2ccccc2NC1=O (stereo unspecified)
3. CO[C@H]1O[C@@H]2CO[C@@H](c3ccccc3)O[C@H]2C[C@]12CCC/C=C\CO2
4. O=Cc1coc2ccccc2c1=O

Solution:
12.2 µM
> 100 µM
36.5 µM
69.7 µM

Provide the reported TGI of each entry below, same order.
1. COc1cc(CC2c3cc(OC)c(OC)cc3CCN2C)c(Oc2cc3c(cc2OC)-c2c(OC)c(OC)c(OC)c4c2C(C3)N(C)CC4)cc1OC (stereo unspecified)
2. O=C(/C=C\c1ccnc2ccccc12)c1ccc([N+](=O)[O-])cc1

Solution:
["> 50.9 µM", "> 48.1 µM"]

====

Test system: HCT-116 colon
Assay Text: NCI tumour cell line growth inhibition, 48 h
Measure Name: TGI (µM)
Give bare numbers, in µM.

# Compound, TGI [µM]
records = [
    ("COC(=O)C1=C(O)C(C(=O)OC)[C@]2(O)[C@H](C(=O)OC)[C@H]1C[C@@H](c1ccc(OC)cc1)[C@H]2C(=O)OC (stereo not given in full)", 38.5),
    ("COC(=O)CCC1=C(C)c2cc3[n-]c(cc4nc(cc5[n-]c(cc1n2)c(CCC(=O)OC)c5C)C=C4C)cc3C.[Cd+2]", 25.3),
    ("COc1ccc(/C=C2\\N=C3SC=C(N)N3C2=O)cc1", 2.61),
]

With those in mind, consider the next compound.
Problem: Would you kindly share the measured TGI for COc1ccc(C(Nc2ncccn2)c2cc3c(cc2O)OCO3)cc1 (stereo not given) ?
Solution: 71.3

====

System: SN12C renal
Assay Text: NCI tumour cell line growth inhibition, 48 h
If the reported TGI equals or exceeds 10 µM, assign MET. If not, assign NOT MET.

# Molecule, Experimental Target, Category Label
measured = [
    ("CC/C=C\\CCC/C=C1/C(=O)C=C[C@@H]1C/C=C\\CCCC(=O)O", "SN12C renal", "NOT MET"),
]

Problem: Is TGI for CC(=O)c1cccc(NC2C(N)C(NC(=O)N(C)C)(C(C)O)C(C)(O)C2(O)COC(=O)c2c(C)cccc2O)c1 (configuration not stated) at or above 10 µM?
Solution: NOT MET

Problem: Is TGI for Oc1c(CN2CCCC2)cc(COCc2ccccc2)c2cccnc12 at or above 10 µM?
Solution: MET

Problem: Is TGI for COc1ccc(/C=C\c2cc(OC)c(OC)c(OC)c2)c(NS(=O)(=O)c2ccc(C)cc2)c1O at or above 10 µM?
Solution: MET

====

Tested on: LXFL 529 NSCLC
Assay Text: NCI tumour cell line growth inhibition, 48 h
Measure Name: TGI

# Compound, Measure Name, Reported Result
measured = [
    ("CC[C@@H]1OC2(C)CC(S(=O)(=O)c3ccccc3)CC1O2 (stereo not given in full)", "TGI", "> 100 µM"),
]

Provide the reported TGI of each entry below, same order.
1. CCC1(CN(C)C)CC/C(=C\c2ccc3c(c2)OCO3)C1=O (stereo not given)
2. COc1ccc2c(c1)CC[C@@H]1C2CC[C@]2(C)C(=O)NC(=O)CC12 (stereo not given in full)
3. COc1ccc(NC(=O)C(=O)C2NC(=S)NC2=O)c(OC)c1 (stereo not given)
4. C=C1C(=O)OC2/C=C(\C)C(O)/C=C\C(C)(O)CC(OC(=O)/C(C)=C/C)C12 (stereo not given)
5. COc1cc2c(cc1C)n(O)c(C)c(C(=O)C/C(=N/NC(=O)C[N+](C)(C)C)C(=O)Nc1cccc(Cl)c1C)[n+]2=O
6. CN(O)C(=O)Cc1ccccc1

Solution:
1. > 100 µM
2. > 100 µM
3. > 100 µM
4. 29.1 µM
5. > 100 µM
6. > 100 µM

Provide the reported TGI of each entry below, same order.
1. O=[N+]([O-])c1ccccc1C1N2CCCCC2[C@@H]2c3[nH]c4ccccc4c3CCN12 (stereo not given in full)
2. C/C(=N\Nc1ccc([N+](=O)[O-])cc1)C(=O)N(C)Nc1ccccc1
3. CCCCCCCCCC(=O)CC(=O)c1c(O)cccc1O

Solution:
22.8 µM
> 100 µM
> 100 µM

====

Tested on: SF-295 CNS
Assay Text: NCI tumour cell line growth inhibition, 48 h
I'd appreciate it if you could supply TGI values for the items below.
Answers are plain numbers, in µM.

Look over these answered cases.
# Compound, TGI [µM]
measured = [
    ("Fc1ccccc1C1CC(C(c2ccccc2)c2ccccc2)=Nc2ccccc2S1 (stereo not given)", 26.5),
    ("CC(Cc1ccc(O)c(O)c1)C(C)Cc1ccc(O)c(O)c1 (stereo not given)", 43),
    ("CC(C)[Si]1(C(C)C)OCC2OC(n3ccc(=O)[nH]c3=O)C(O)(CO)C2O[Si](C(C)C)(C(C)C)O1 (stereo not given)", 28.5),
]

Problem: Would you kindly share the measured TGI for O=C(/C=C/c1cccc(Cl)c1)c1ccc(Cl)cc1Cl ?
Solution: 22.4

====

System: HL-60(TB) leukemia
Assay Text: NCI tumour cell line growth inhibition, 48 h; in the data active = GI50 below about 0.43 µM; inactive = the rest
Response enum: active, inactive

Example cases with answers are listed next.
# Molecule, Experimental Target, Category Label
rows = [
    ("CC/C=C\\CCC/C=C1/C(=O)C=C[C@@H]1C/C=C\\CCCC(=O)O", "HL-60(TB) leukemia", "inactive"),
    ("CC(C)(C)CC(C)(C)c1ccc(OCCOCCSC(=N)N)cc1", "HL-60(TB) leukemia", "inactive"),
    ("FC(F)(F)c1ccc(-c2cnc(Br)nc2NC2CCCCCC2)cc1", "HL-60(TB) leukemia", "inactive"),
    ("CC[C@H](C)[C@H](NC(=O)C12C3C4C1C1C2C3C41NC(C)=O)C(=O)N(C)[C@H](C[C@@H](OC(C)=O)c1nc(C(=O)N[C@@H](Cc2ccccc2)C[C@H](C)C(=O)OC)cs1)C(C)C (stereo partly specified)", "HL-60(TB) leukemia", "active"),
    ("CCCC[C@@H](COC(=O)N(Cc1cccs1)Cc1cccs1)NC(=O)N[C@@H](CC(=O)OC)c1ccc2c(c1)OCO2", "HL-60(TB) leukemia", "inactive"),
]

In the following, a different molecule is considered.
Problem: Which outcome did this test record for the molecule CC(=O)/C(C)=N/N/C(N)=N\S(=O)(=O)c1cc(C(=O)Nc2ccccc2)c(Cl)cc1SCc1ccccc1 ?
Solution: inactive

====

System: MDA-MB-435
Assay Text: NCI tumour cell line growth inhibition, 48 h
Measure Name: TGI

Look over these answered cases.
# Compound, TGI
data = [
    ("C[C@@H]1OC(=O)C[C@H]2CC(=O)N(CCc3cn(S(=O)(=O)C(F)(F)F)c4ccccc34)C[C@@H]21", "> 100 µM"),
    ("O=C(NCc1ccccc1)c1cnc(Cl)cn1", "> 100 µM"),
    ("CCC1(C)N=C(C(N)=O)c2ncn(N=C(C)C)c2N1 (stereo unspecified)", "> 100 µM"),
    ("CCOC(=O)c1c(SCCO)n(-c2ccccc2)c(=S)n(-c2ccccc2)c1=O", "> 100 µM"),
    ("S=C(Nc1ccc(Br)cn1)NC12CC3CC(CC(C3)C1)C2", "> 100 µM"),
]

Provide the reported TGI of each entry below, same order.
1. CN(/N=C\c1ccc2ccccc2c1)C1=NCCCCN1
2. C=C(C)[C@H]1CC/C(C)=C/CCC(C)C(=O)CC/C(CO)=C\[C@@H]1O (stereo partly specified)
3. COc1ccc(C)cc1NC(=S)N/N=C/c1ccc(SC)cc1
4. C[N+]1(C)CN(c2ccccc2)C2(CCN(CCCC(=O)c3cccs3)CC2)C1=O

Solution:
1. 38.1 µM
2. > 100 µM
3. > 100 µM
4. > 100 µM

Provide the reported TGI of each entry below, same order.
1. COc1cc2c(cc1OC)CCN=C2
2. CCOC(=O)CCC(NC(=O)OCc1ccccc1)C(=O)NC(CCC(=O)OCC)C(=O)NC(CCC(=O)OCC)C(=O)NC(CCC(=O)OCC)C(=O)NC(CCC(=O)OCC)C(=O)OCC (stereo unspecified)

Solution:
1. > 100 µM
2. > 100 µM

Sourced from PubChem BioAssay (NCI)
